Measured values drawn from patent US20200190192A1 for this set.

This section presents binders with their documented Kd values.
target: T1, recombinant human Tim-3-Fc (R&D Systems, 2365-TM) (human, UniProt Q8TDQ0 22-202, biotinylated in the Galectin-9 competition ELISA (sites not given)); experiment: SPR Biacore, human Tim-3 Fc; KD estimated
T1 construct: Bought protein; also called huTim-3-Fc; biotinylated Tim-3-Fc; not shown: Fc of the bought fusion protein
measurement kind: Kd (nM)

{"binder": "h22E11-VK1-39 × h22E11-VH1-69 (antibody, V domains shown, Humanized m22E11) VH: QVQLVQSGAEVKKPGSSVKVSCKVSGFSLTSYGVHWVRQAPGQGLEWLVVIWSDGSTTYNQKFQGRVTITKDESTSTVYMELSSLRSEDTAVYYCARQGGYRYDDAMDYWGQGTLVTVSS VL: DIQLTQSPSSLSASVGDRVTITCKASQSVDYDGNSYVNWYQQKPGKAPKLLIYAASNLESGVPSRFSGSGSGTDFTLTISSLQPEDFATYYCQQSNEDPYTFGQGTKVEIK", "units symbol": "nM", "result value": 6}
{"binder": "h22E11-VK2-28 × h22E11-VH4-30-4 (antibody, V domains shown, Humanized m22E11) VH: QVQLQESGPGLVKPSQTLSLTCTVSGFSLTSYGVHWIRQPPGKGLEWLVVIWSDGSTTYNPSLKSRVTISKDTSKNQVSLKLSSVTAADTAVYYCARQGGYRYDDAMDYWGQGTLVTVSS VL: DIVLTQSPLSLPVTPGEPASISCKASQSVDYDGNSYVNWYLQKPGQSPQLLIYAASNLESGVPDRFSGSGSGTDFTLKISRVEAEDVGVYYCQQSNEDPYTFGQGTKVEIK", "units symbol": "nM", "result value": 7.9}
{"binder": "h22E11-VK1-39 × h22E11-VH5-51 (antibody, V domains shown, Humanized m22E11) VH: EVQLVQSGAEVKKPGESLKISCKVSGFSLTSYGVHWVRQMPGKGLEWLVVIWSDGSTTYNPSFQGQVTISKDKSISTVYLQWSSLKASDTAMYYCARQGGYRYDDAMDYWGQGTLVTVSS VL: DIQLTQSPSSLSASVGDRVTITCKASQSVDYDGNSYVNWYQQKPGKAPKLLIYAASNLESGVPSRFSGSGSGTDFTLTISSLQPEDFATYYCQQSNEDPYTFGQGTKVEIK", "units symbol": "nM", "result value": 5.3}
{"binder": "h22E11-VK4-1 × h22E11-VH3-23 (antibody, V domains shown, Humanized m22E11) VH: EVQLLESGGGLVQPGGSLRLSCAVSGFSLTSYGVHWVRQAPGKGLEWLVVIWSDGSTTYNDSVKGRFTISKDNSKNTVYLQMNSLRAEDTAVYYCARQGGYRYDDAMDYWGQGTLVTVSS VL: DIVLTQSPDSLAVSLGERATINCKASQSVDYDGNSYVNWYQQKPGQPPKLLIYAASNLESGVPDRFSGSGSGTDFTLTISSLQAEDVAVYYCQQSNEDPYTFGQGTKVEIK", "units symbol": "nM", "result value": 5}
{"binder": "h22E11-VK3-11 × h22E11-5-IgG-HC (antibody, V domains shown, Humanized m22E11) VH: EVQLVESGGGLVQPGGSLRLSCAVSGFSLTSYGVHWVRQAPGKGLEWLVVIWSDGSTTYNSALKSRFTISKDNAKNSVYLQMNSLRAEDTAVYYCARQGGYRYDDAMDYWGQGTLVTVSS VL: EIVLTQSPATLSLSPGERATLSCKASQSVDYDGNSYVNWYQQKPGQAPRLLIYAASNLESGIPARFSGSGSGTDFTLTISSLEPEDFAVYYCQQSNEDPYTFGQGTKVEIK", "units symbol": "nM", "result value": 5.9}
{"binder": "h22E11-VK3-11 × h22E11-VH4-30-4 (antibody, V domains shown, Humanized m22E11) VH: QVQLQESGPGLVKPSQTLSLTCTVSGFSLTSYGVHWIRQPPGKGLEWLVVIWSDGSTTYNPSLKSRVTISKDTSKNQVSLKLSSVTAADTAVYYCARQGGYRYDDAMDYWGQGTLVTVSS VL: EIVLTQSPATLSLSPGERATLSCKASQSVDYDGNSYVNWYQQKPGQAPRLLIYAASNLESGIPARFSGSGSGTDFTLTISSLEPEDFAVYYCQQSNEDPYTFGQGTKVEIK", "units symbol": "nM", "result value": 7.2}
{"binder": "h22E11-VK4-1 × h22E11-VH5-51 (antibody, V domains shown, Humanized m22E11) VH: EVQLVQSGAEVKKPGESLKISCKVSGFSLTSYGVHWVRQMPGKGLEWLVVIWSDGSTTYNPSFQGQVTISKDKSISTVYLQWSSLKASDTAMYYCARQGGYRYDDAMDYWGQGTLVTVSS VL: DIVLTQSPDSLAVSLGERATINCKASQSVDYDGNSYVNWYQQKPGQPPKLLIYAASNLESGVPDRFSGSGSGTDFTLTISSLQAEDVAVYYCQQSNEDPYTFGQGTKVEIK", "units symbol": "nM", "result value": 4.8}
{"binder": "h22E11-VK1-39 × h22E11-VH4-30-4 (antibody, V domains shown, Humanized m22E11) VH: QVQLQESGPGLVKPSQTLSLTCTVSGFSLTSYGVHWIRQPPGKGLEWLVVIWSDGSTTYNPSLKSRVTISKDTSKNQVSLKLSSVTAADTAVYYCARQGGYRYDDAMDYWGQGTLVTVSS VL: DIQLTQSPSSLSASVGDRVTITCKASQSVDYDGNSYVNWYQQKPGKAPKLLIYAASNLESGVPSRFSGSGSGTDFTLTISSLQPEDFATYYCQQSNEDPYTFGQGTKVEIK", "units symbol": "nM", "result value": 9.1}
{"binder": "h22E11-VK2-28 × h22E11-VH5-51 (antibody, V domains shown, Humanized m22E11) VH: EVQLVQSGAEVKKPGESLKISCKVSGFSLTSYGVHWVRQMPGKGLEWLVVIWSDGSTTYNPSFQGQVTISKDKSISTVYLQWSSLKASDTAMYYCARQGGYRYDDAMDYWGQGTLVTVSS VL: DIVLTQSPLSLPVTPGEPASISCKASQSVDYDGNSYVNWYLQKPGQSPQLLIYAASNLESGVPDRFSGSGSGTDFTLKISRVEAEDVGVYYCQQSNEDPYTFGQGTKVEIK", "units symbol": "nM", "result value": 4.8}
{"binder": "h22E11-VK2-28 × h22E11-VH3-23 (antibody, V domains shown, Humanized m22E11) VH: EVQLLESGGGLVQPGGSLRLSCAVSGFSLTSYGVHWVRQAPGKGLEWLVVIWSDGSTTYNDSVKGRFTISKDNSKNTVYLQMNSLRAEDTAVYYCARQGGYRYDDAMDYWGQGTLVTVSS VL: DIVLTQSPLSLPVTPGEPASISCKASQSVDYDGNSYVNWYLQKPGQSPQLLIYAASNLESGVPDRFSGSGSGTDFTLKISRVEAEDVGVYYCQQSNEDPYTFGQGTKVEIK", "units symbol": "nM", "result value": 5.9}
